# Test system: SEM cells
# protocol_summary: cell viability relative to DMSO control; higher = less cytotoxic
# setup_conditions: HPLM + 10% dialyzed FBS; 48 h; 0.00234 µM
quantity_measured: cell viability (%)

# molecule, quantity_measured, quantity_unit, observed_measurement
records = [
    ("COC1=CC=C(C=C1)C/2=C/OC3=C(C(=CC(=C3)O)O)C2=O", "cell viability", "%", 124),
    ("Nc1nc(N)c2nc(CNc3ccc(C(=O)NC(CCC(=O)O)C(=O)O)cc3)cnc2n1 (stereo not given)", "cell viability", "%", 114),
    ("CO[C@H]1/C=C\\C=C(\\C)C(=O)NC2=CC(=O)C(NCCN(C)C)=C(C[C@@H](C)C[C@H](OC)[C@H](O)[C@@H](C)/C=C(/C)[C@@H]1OC(N)=O)C2=O", "cell viability", "%", 124),
    ("CCCCCC[C@H]1C(=O)O[C@H](C)[C@H](NC(=O)c2cccc(NC=O)c2O)C(=O)O[C@@H](C)[C@@H]1OC(=O)CC(C)C", "cell viability", "%", 130),
    ("Fc1ccc([C@@H]2CCNC[C@H]2COc2ccc3c(c2)OCO3)cc1", "cell viability", "%", 124),
    ("COc1ccc(-c2ccc3c(N4CCOC[C@@H]4C)nc(N4CCOC[C@@H]4C)nc3n2)cc1CO", "cell viability", "%", 58.2),
    ("C[C@@H]1[C@H](O)[C@@H](C)/C=C/C=C/C=C/C=C/C=C/C=C/C=C/[C@H](O[C@@H]2O[C@H](C)[C@@H](O)[C@H](N)[C@@H]2O)C[C@@H]2O[C@](O)(C[C@@H](O)C[C@@H](O)[C@H](O)CC[C@@H](O)C[C@@H](O)CC(=O)O[C@H]1C)C[C@H](O)[C@H]2C(=O)O", "cell viability", "%", 92.1),
    ("CC/1=C(/N2[C@H](SC1)[C@H](NC(=O)[C@H](N)\\C3=C\\C\\C=C/C3)C2=O)C(O)=O", "cell viability", "%", 87.2),
    ("CCN1\\C=C(\\C(O)=O)C(=O)C2=CC=C(C)N=C12", "cell viability", "%", 70.2),
    ("CNC(=O)c1ccc(N2C(=S)N(c3ccc(C#N)c(C(F)(F)F)c3)C(=O)C23CCC3)cc1F", "cell viability", "%", 98.8),
    ("CC(C)CC(=O)N[C@H](C(=O)N[C@H](C(=O)N[C@@H](CC(C)C)[C@@H](O)CC(=O)N[C@@H](C)C(=O)N[C@@H](CC(C)C)[C@@H](O)CC(=O)O)C(C)C)C(C)C", "cell viability", "%", 89.1),
    ("COc1cc2nccc(Oc3ccc(NC(=O)NC4CC4)c(Cl)c3)c2cc1C(N)=O", "cell viability", "%", 117),
    ("CCOC(=O)\\C1=C(/C)N\\C2=C(C1C3=CC=C(C=C3)C4=CC=CC=C4)\\C(=O)CC(C)(C)C2 (stereo not given)", "cell viability", "%", 104),
    ("O=C(NC[C@H](O)CO)c1ccncc1Nc1ccc(I)cc1F", "cell viability", "%", 104),
    ("Cc1cn([C@@H]2O[C@H](CO)[C@@H](O)[C@@H]2F)c(=O)[nH]c1=O", "cell viability", "%", 103),
]

====

# Test system: P12-Ichikawa
# protocol_summary: cell viability relative to DMSO control; higher = less cytotoxic
# setup_conditions: HPLM + 10% dialyzed FBS; 48 h; 0.00702 µM
Here, each record is paired with measured cell viability data.
quantity_measured: cell viability (%)

# molecule, assayed_system, quantity_measured, quantity_unit, observed_measurement
data = [
    ("C=C(C)[C@H]1Cc2c(ccc3c2O[C@@H]2COc4cc(OC)c(OC)cc4[C@@H]2C3=O)O1", "P12-Ichikawa", "cell viability", "%", 107),
    ("O=C(O[C@H]1C[C@H]2CC[C@@H](C1)[N+]21CCCC1)C(O)(c1ccccc1)c1ccccc1.[Cl-]", "P12-Ichikawa", "cell viability", "%", 112),
    ("O=C(Nc1ccc(F)c(C(F)(F)F)c1)Nc1nnc(-c2ccncc2)s1", "P12-Ichikawa", "cell viability", "%", 119),
    ("S=P(N1CC1)(N1CC1)N1CC1", "P12-Ichikawa", "cell viability", "%", 113),
    ("CC(C)CC(=O)N[C@H](C(=O)N[C@H](C(=O)N[C@@H](CC(C)C)[C@@H](O)CC(=O)N[C@@H](C)C(=O)N[C@@H](CC(C)C)[C@@H](O)CC(=O)O)C(C)C)C(C)C", "P12-Ichikawa", "cell viability", "%", 107),
    ("Cn1cnc2c1c(=O)[nH]c(=O)n2C", "P12-Ichikawa", "cell viability", "%", 100),
    ("CN1\\C(=C(\\O)C2=CC=CC=C2[S+]1([O-])=O)C(=O)NC3=NC=C(C)S3", "P12-Ichikawa", "cell viability", "%", 93.9),
    ("CN1CCCN=C1/C=C/c1cccs1.O=C(O)c1cc2ccccc2c(Cc2c(O)c(C(=O)O)cc3ccccc23)c1O", "P12-Ichikawa", "cell viability", "%", 118),
    ("Cc1ccc([S+](=O)([O-])N[C@@H](Cc2ccccc2)C(=O)CCl)cc1", "P12-Ichikawa", "cell viability", "%", 101),
    ("COC1=CC=C(C=C1)C/2=C/OC3=C(C(=CC(=C3)O)O)C2=O", "P12-Ichikawa", "cell viability", "%", 118),
    ("CC(N)C12CC3CC(CC(C3)C1)C2 (centres undefined)", "P12-Ichikawa", "cell viability", "%", 111),
    ("Cc1cn(-c2cc(NC(=O)c3ccc(C)c(Nc4nccc(-c5cccnc5)n4)c3)cc(C(F)(F)F)c2)cn1", "P12-Ichikawa", "cell viability", "%", 108),
    ("FC1=CC=C(SC/2=N/N3\\C=N/C(=O)/C(=C3/C=C2)C4=C(Cl)C=CC=C4Cl)C(=C1)F", "P12-Ichikawa", "cell viability", "%", 114),
    ("C\\C1=C(\\C=C(\\C#N)C(=O)N1)C2=CC=NC=C2", "P12-Ichikawa", "cell viability", "%", 102),
    ("C\\C1=C(\\C=C(C#N)/C(=O)N1)C2=C[N]3C=CN=C3C=C2", "P12-Ichikawa", "cell viability", "%", 87.3),
    ("C[S+]([O-])(=O)C1=CC=C(C=C1)C/2=C(/C(=O)OC2)C3=CC=CC=C3", "P12-Ichikawa", "cell viability", "%", 112),
    ("C=C[C@H]1CN2CC[C@H]1C[C@H]2[C@H](O)c1ccnc2ccc(OC)cc12", "P12-Ichikawa", "cell viability", "%", 93.6),
    ("OC1CCC(Nc2ncc3nc(Nc4c(F)cc(F)cc4F)n([C@@H]4CCOC4)c3n2)CC1 (some centres undefined)", "P12-Ichikawa", "cell viability", "%", 115),
    ("CC(C)C1=C(O)C=C(O)C(=C1)C/2=N/NC(=O)N2C3=CC4=C(C=C3)[N](C)C=C4", "P12-Ichikawa", "cell viability", "%", 118),
]

====

Here, each record is paired with measured cell viability data.
# Test system: NOMO1
# protocol_summary: cell viability relative to DMSO control; higher = less cytotoxic
# setup_conditions: HPLM + 10% dialyzed FBS; 48 h; 0.00702 µM
quantity_measured: cell viability

# compound, quantity_measured, observed_measurement
records = [
    ("COc1ncc(-c2ccc3nccc(-c4ccnnc4)c3c2)cc1N[S+](=O)([O-])c1ccc(F)cc1F", "cell viability", "76.8%"),
    ("OC[C@H]1OCC(O1)[N@@]2C=CC(N)=NC2=O (some centres undefined)", "cell viability", "101%"),
    ("O=C(O)c1ccc2c(c1)nc(Nc1cccc(Cl)c1)c1ccncc12", "cell viability", "131%"),
    ("C=C[C@H]1CN2CC[C@H]1C[C@H]2[C@H](O)c1ccnc2ccc(OC)cc12", "cell viability", "96.3%"),
    ("CC1(C)O[C@@H]2C[C@H]3[C@@H]4CCC5=CC(=O)C=C[C@]5(C)[C@H]4[C@@H](O)C[C@]3(C)[C@]2(C(=O)CO)O1", "cell viability", "104%"),
    ("CCC[C@H]1C[C@H](C(=O)N[C@@H]([C@@H]2O[C@@H](SC)[C@@H](O)[C@@H](O)[C@H]2O)[C@H](C)Cl)N(C)C1", "cell viability", "106%"),
    ("Cn1cnc2c1c(=O)[nH]c(=O)n2C", "cell viability", "102%"),
    ("CCn1c(-c2nonc2N)nc2cnc(Oc3cccc(NC(=O)c4ccc(OCCN5CCOCC5)cc4)c3)cc21", "cell viability", "105%"),
    ("COc1cc2ncnc(Nc3cc(Br)c(O)c(Br)c3)c2cc1OC", "cell viability", "114%"),
]
